Item-by-item account of EC50
biological target: T1, human GPC3 (Glypican-3) (human, UniProt P51654 25-580); assay: FACS on HepG2 cells
T1 construct: whole, on cells; the cell line is named under assay or readout
State just the number; it will be interpreted in mg/L.

GC33-ZLA (antibody, V domains shown, ZLA linker-payload on cysteine thiols of the antibody freed by TCEP reduction of disulfide bonds; positions not given, Whole antibody; also called GC33 ADC; Anti-GPC3-ZLA) VH: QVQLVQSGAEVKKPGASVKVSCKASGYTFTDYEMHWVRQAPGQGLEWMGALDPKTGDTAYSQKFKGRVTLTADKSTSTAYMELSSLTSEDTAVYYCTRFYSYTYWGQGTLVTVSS VL: DVVMTQSPLSLPVTPGEPASISCRSSQSLVHSNGNTYLHWYLQKPGQSPQLLIYKVSNRFSGVPDRFSGSGSGTDFTLKISRVEAEDVGVYYCSQNTHVPPTFGQGTKLEIK
0.143

Query: Requested field: EC50. Item: Hu 52H5D3B8-8-L4-D4 (antibody, human IgG1, kappa, V domains shown, MC-MMAF (L4-D4) on cysteine thiols freed by TCEP reduction of disulfide bonds; positions not given, Constant regions as for Hu 52H5D3B8-8; also called Hu 52H5D3B8-8 ADC; Anti-GPC3-L4-D4) VH: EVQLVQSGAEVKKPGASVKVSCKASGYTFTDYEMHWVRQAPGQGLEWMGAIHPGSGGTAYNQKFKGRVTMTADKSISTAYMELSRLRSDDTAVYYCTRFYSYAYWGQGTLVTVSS VL: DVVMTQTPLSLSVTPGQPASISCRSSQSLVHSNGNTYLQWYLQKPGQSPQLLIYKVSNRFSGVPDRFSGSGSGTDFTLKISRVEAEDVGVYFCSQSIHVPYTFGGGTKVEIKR
Response: 0.0693

Query: What do you have for GC33-L4-D4 (antibody, V domains shown, MC-MMAF (L4-D4) on cysteine thiols of the antibody freed by TCEP reduction of disulfide bonds; positions not given, Whole antibody; also called GC33 ADC; Anti-GPC3-L4-D4) VH: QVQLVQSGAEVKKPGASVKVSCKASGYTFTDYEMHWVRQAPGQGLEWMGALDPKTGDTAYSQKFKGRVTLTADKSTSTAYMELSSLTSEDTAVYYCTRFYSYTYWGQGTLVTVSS VL: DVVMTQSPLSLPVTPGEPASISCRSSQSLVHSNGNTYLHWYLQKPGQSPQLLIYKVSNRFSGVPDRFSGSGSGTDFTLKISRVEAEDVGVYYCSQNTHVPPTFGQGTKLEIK ?
Response: 0.112
